Source: the supplement of paper PMC8617591

- Test system: Mycobacterium tuberculosis Erdman (autoluminescent)
- test summary: GRinf, maximum normalised growth rate inhibition (three-drug combination) (unitless (-1 to 1)); higher = less effect (negative = killing)
- recorded conditions: in vitro model: butyrate; time point: constant (~7 days, model-specific)
# GRinf annotations
The answer should be a number; do not append a unit.

Check out these entries, answers already filled in.
>>> data_value("COc1nc2ccc(Br)cc2cc1[C@@H](c1ccccc1)[C@@](O)(CCN(C)C)c1cccc2ccccc12 [bedaquiline] + CC[C@@H](CO)NCCN[C@@H](CC)CO [ethambutol] + NC(=O)c1cnccn1 [pyrazinamide]")
-0.23
>>> data_value("CC[C@@H](CO)NCCN[C@@H](CC)CO [ethambutol] + CO[C@H]1/C=C/O[C@@]2(C)Oc3c(C)c(O)c4c(O)c(c(/C=N/N5CCN(C6CCCC6)CC5)c(O)c4c3C2=O)NC(=O)/C(C)=C\\C=C\\[C@H](C)[C@H](O)[C@@H](C)[C@@H](O)[C@@H](C)[C@H](OC(C)=O)[C@@H]1C [rifapentine] + CO[C@H]1/C=C/O[C@@]2(C)Oc3c(C)c(O)c4c(O)c(c(/C=N/N5CCN(C)CC5)c(O)c4c3C2=O)NC(=O)/C(C)=C\\C=C\\[C@H](C)[C@H](O)[C@@H](C)[C@@H](O)[C@@H](C)[C@H](OC(C)=O)[C@@H]1C [rifampicin]")
-0.00846
>>> data_value("CC(C)/N=c1\\cc2n(-c3ccc(Cl)cc3)c3ccccc3nc-2cc1Nc1ccc(Cl)cc1 [clofazimine] + CC[C@@H](CO)NCCN[C@@H](CC)CO [ethambutol] + NC(=O)c1cnccn1 [pyrazinamide]")
-0.122

Please find the next compound below.
Form field: reported GRinf of COc1nc2ccc(Br)cc2cc1[C@@H](c1ccccc1)[C@@](O)(CCN(C)C)c1cccc2ccccc12 [bedaquiline] + CC(C)/N=c1\cc2n(-c3ccc(Cl)cc3)c3ccccc3nc-2cc1Nc1ccc(Cl)cc1 [clofazimine] + CC(=O)NC[C@H]1CN(c2ccc(N3CCOCC3)c(F)c2)C(=O)O1 [linezolid]
-0.105
